As an illustration, consider measured Kd for compounds on Cyclin-dependent kinase 2 (Homo sapiens, UniProt P24941).
State the value, then name its unit.

compound="c1ccc(CNc2ncnc3nc[nH]c23)cc1 [6-BENZYLAMINOPURINE]" recorded_metric=Kd result_value="62 µM"

Kindly consider the entry below.
# get_value(readout='Kd', item= CC(C)=CCNc1ncnc2nc[nH]c12 )
35 µM

----------
TARGET OF ASSAY: Cyclin-dependent kinase 2 (Homo sapiens, UniProt P24941)
EXPERIMENT DESCRIPTION: Binding affinity to N-terminal His-tagged human CDK2 expressed in Escherichia coli BL21-AI by STD-NMR analysis
The source made the active and inactive calls. The rule behind the calls is not given here.
Write down the outcome that applies. Available outcomes: active, inactive

# example entries with known answers
smiles_input=N=C(N)NCCNS(=O)(=O)c1cccc2cnccc12 label_value=active
smiles_input=CNc1ncnc2ccc([N+](=O)[O-])cc12 label_value=active
smiles_input=Cc1ccc(Cn2cc(-n3c(-c4ccc(Cn5nc(C)c(Cl)c5C)o4)n[nH]c3=S)cn2)cc1 label_value=inactive
smiles_input=Cc1ccc(Cn2cc(-n3c(-c4ccc(Cn5cc(Cl)cn5)cc4)n[nH]c3=S)cn2)cc1 label_value=inactive

Proceed to the following item.
Check the results log: what was the call for Cc1ccc(Cn2nccc2-n2c(-c3cc(C)n(C)n3)n[nH]c2=S)cc1 ?
active

----------
TARGET OF ASSAY: CDK2/Cyclin A2 (Homo sapiens)
EXPERIMENT DESCRIPTION: Inhibition of recombinant full-length human Cdk2/cyclin A using histone H1 as substrate incubated for 120 mins in presence of 33-P ATP by kinase phosphorylation assay
RECORDED METRIC: IC50

smiles_input=Cc1ccc(Cn2nccc2-n2c(-c3cc(C)n(C)n3)n[nH]c2=S)cc1 result_value="1000 µM"

# get_value(readout='IC50', item= Cc1nc2[nH]n(-c3ccccc3)c(=O)c2c2c1c(=O)oc1ccc(Br)cc12 )
2.6 µM
